- system: T1, Recombinant Human TNF-α/TNFSF1A (human, UniProt P01375 77-233)
- T1 construct: also called hTNF-α; huTNFα
- T1 sequence (P01375 77-233 limits assumed): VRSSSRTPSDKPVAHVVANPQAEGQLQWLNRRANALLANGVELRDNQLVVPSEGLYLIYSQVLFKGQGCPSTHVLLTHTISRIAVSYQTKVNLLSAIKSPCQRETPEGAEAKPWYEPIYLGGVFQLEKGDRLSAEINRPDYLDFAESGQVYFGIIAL
- testName: SPR (BIACORE), antibody captured, TNFα in solution
- Protocol: The BIACORE assay (Biacore, Inc, Piscataway, N.J.) determines the affinity of antibodies with kinetic measurements of on-rate and off-rate constants. Binding of antibodies to a target antigen (for example, a purified recombinant target antigen) is determined by surface plasmon resonance-based measurements with a Biacore® 1000 or 3000 instrument (Biacore® AB, Uppsala, Sweden) using running HBS-EP (10 mM HEPES [pH 7.4], 150 mM NaCl, 3 mM EDTA, and 0.005% surfactant P20) at 25° C. […]
propertyLabel: koff (s⁻¹)
Only the number, expressed in s⁻¹, is required.

binder | unitSymbol | koff
AB386 (antibody, V domains shown, Full-length humanized antibody made in HEK 293-6E; also called hMAK199VH.2b/hMAK199VL.2b) VH: EIQLVQSGAEVKKPGASVKVSCKASGYTFTNYGMNWVRQAPGQGLEWMGWINTYTGEPTYADDFKGRVTFTTDTSTSTAYMELSSLRSEDTAVYYCARKFLTTVVVTDYAMDYWGQGTTVTVSS VL: DIVMTQSPAFLSVTPGEKVTITCRASQDISNYLNWYQQKPDQAPKLLIYYTSRLQSGVPSRFSGSGSGTDYTFTISSLEAEDAATYYCQQGNTLPPTFGQGTKLEIK | s⁻¹ | 0.0015

koff in this record for AB384 (antibody, V domains shown, Full-length humanized antibody made in HEK 293-6E; also called hMAK199VH.2b/hMAK199VL.2) VH: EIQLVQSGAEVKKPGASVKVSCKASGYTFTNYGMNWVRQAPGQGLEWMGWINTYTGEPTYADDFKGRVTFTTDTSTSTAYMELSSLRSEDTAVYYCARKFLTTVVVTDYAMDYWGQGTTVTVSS VL: DVVMTQSPAFLSVTPGEKVTITCRASQDISNYLNWYQQKPDQAPKLLIKYTSRLQSGVPSRFSGSGSGTDFTFTISSLEAEDAATYYCQQGNTLPPTFGQGTKLEIK : 0.0014

Data origin: patent US20150111251A1
